Target: Luciferin 4-monooxygenase (Photinus pyralis)
Assay: Biochemical firefly luciferase enzyme assay for NPC (AID 624030); also: nearly all actives have a fitted effect of over 70% in size
Conditions: purified P. pyralis luciferase, luminescence, 5 min; series mostly up to 58.6 µM
Results filed as inconclusive are left out. The source made the active and inactive calls. Calls follow the shape of the dose curve; as a rule, active = well fitted inhibition curve with a large enough effect; inconclusive = small, poorly fitted or top-dose-only effect; inactive = flat fitted curve, though single readings scatter.
Mark one answer only. Choices: active, inactive

Entry CC(/C=C1\SC(=S)N(CC(=O)O)C1=O)=C\c1ccccc1 : call = ? active

Kindly provide the recorded test outcome for the following compound: CN1C(=O)CCC1c1cccnc1 (stereo not given) inactive

In this assay, the call recorded for CC(C)C[C@H]1C(=O)N2CCCC2[C@]2(O)O[C@](NC(=O)[C@@H]3C=C4c5cccc6[nH]c(Br)c(c56)C[C@H]4N(C)C3)(C(C)C)C(=O)N12 (stereo not given in full) was what? inactive

What classification did CN=C(N)NCCCC(N)C(=O)O (stereo not given) end up with in this test? inactive

Hey, what did the test say about CC(C)(C)[C@]1(O)CCN2CC3c4ccccc4CCc4cccc(c43)[C@@H]2C1 (stereo not given in full) ? inactive

# lookup: test call for C=C1/C(=C\C=C2/CCC[C@]3(C)[C@@H]([C@H](C)CCCC(C)(C)O)CC[C@@H]23)C[C@@H](O)C[C@@H]1O inactive

Assay result, entry C[C@@]12C(=O)OC(=O)[C@]1(C)[C@H]1CC[C@@H]2O1 — outcome? inactive

Record lookup: outcome of this test for C=C1CCC2[C@](C)(CO)C(O)CC[C@]2(C)C1C/C=C1/C(=O)OCC1O (stereo not given in full) ? inactive

Look up the recorded call for COc1ccc(CCNC[C@@H](O)c2ccc(O)cc2)cc1OC in this test. inactive

Please share the test call associated with COC[C@@H](c1ccc(C(F)(F)F)cc1)N1CCN(C2(C)CCN(C(=O)c3c(C)ncnc3C)CC2)C[C@@H]1C . inactive
